TARGET OF ASSAY: Thromboxane A2 receptor (Rattus norvegicus, UniProt P34978)
Sequence (P34978 whole entry): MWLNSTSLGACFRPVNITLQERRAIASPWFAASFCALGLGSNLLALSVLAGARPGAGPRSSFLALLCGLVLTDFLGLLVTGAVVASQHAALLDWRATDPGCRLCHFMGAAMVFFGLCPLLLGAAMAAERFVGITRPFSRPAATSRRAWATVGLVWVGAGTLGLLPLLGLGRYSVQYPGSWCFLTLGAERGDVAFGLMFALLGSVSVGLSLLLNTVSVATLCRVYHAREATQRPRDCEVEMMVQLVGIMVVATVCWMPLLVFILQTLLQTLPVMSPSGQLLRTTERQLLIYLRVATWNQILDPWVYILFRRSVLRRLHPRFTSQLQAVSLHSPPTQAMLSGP
PROTOCOL: In vitro thromboxane A2 receptor antagonism through inhibition of U-46619 induced contraction of rat isolated thoracic aortic strip
Assay type: functional
CONDITION NOTES: read-out: pA2 (converted)
REPORTED ENDPOINT: Kb (nM)

Dear colleague, I am looking for the recorded Kb of the following compound: "O=C(O)CCCO/N=C(/c1cccnc1)c1cccc(CCNS(=O)(=O)c2ccc(I)cc2)c1"
12.6

Recorded Kb of "O=C(O)CCC/C=C(/c1cccnc1)c1cccc(CCCNS(=O)(=O)c2ccccc2)c1" , please.
126

(a) O=C(O)CC/C=C(/c1cccnc1)c1cccc(CCNS(=O)(=O)c2ccccc2)c1
(b) CC(C)(CNS(=O)(=O)c1ccc(I)cc1)c1cccc(/C(=C\CCCC(=O)O)c2cccnc2)c1
(c) O=C(O)CCC/C=C(/c1cccnc1)c1cccc(CCNS(=O)(=O)c2ccc(Cl)c(Cl)c2)c1
(d) O=C(O)CCCC/C=C(/c1cccnc1)c1cccc(CCNS(=O)(=O)c2ccc(I)cc2)c1
hey, can you rank those compounds up there by Kb? biggest number first please In your reply, arrange the labels in the requested order.
c, a, d, b
(c: 63.1 nM, a: 31.6 nM, d: 10 nM, b: 0.631 nM)
